# method_description: Cytotoxicity against human NCI-H929 cells after 3 days by Alamar blue assay
# Type: functional, cell-based
# particulars: NCI-H929, 72 h
Listed molecules paired with reported IC50
Record the value in nM, omitting the unit from your answer.

See these solved cases before continuing.
CC1=C(COS(=O)(=O)O)C(=O)O[C@@H]([C@@H](C)[C@H]2CC[C@H]3[C@@H]4C[C@H]5O[C@]56[C@@H](O)C=CC(=O)[C@]6(C)[C@H]4CC[C@]23C)C1 :: 3320
CC1=C(C)C(=O)O[C@@H]([C@@H](C)[C@H]2CC[C@H]3[C@@H]4C[C@H]5O[C@]56[C@@H](O)C=CC(=O)[C@]6(C)[C@H]4CC[C@]23C)C1 :: 880
CC(=O)OCC1=C(C)C[C@H]([C@@H](C)[C@H]2CC[C@H]3[C@@H]4C[C@H]5O[C@]56[C@H](O)C=CC(=O)[C@]6(C)[C@H]4CC[C@]23C)OC1=O :: 50
CC(=O)O[C@@H]1C=CC(=O)[C@]2(C)[C@H]3CC[C@]4(C)[C@@H]([C@H](C)[C@H]5CC(C)=C(CO)C(=O)O5)CC[C@H]4[C@@H]3C[C@H]3O[C@]132 :: 250
CC(=O)OCC1=C(C)C[C@H]([C@@H](C)[C@H]2CC[C@H]3[C@@H]4C[C@H]5O[C@]56[C@@H](OC(C)=O)C=CC(=O)[C@]6(C)[C@H]4C[C@@H](OC(C)=O)[C@]23C)OC1=O :: 180

Value lookup for IC50; key = CC(=O)OCC1=C(C)C[C@H]([C@@H](C)[C@H]2CC[C@H]3[C@@H]4C[C@H](OC(C)=O)[C@]5(O)[C@@H](OC(C)=O)C=CC(=O)[C@]5(C)[C@H]4CC[C@]23C)OC1=O
2290

Can you look up the measured IC50 of CC(=O)OCC1=C(C)C[C@H]([C@@H](C)[C@H]2CC[C@H]3[C@@H]4C[C@H]5O[C@]56[C@@H](O)C=CC(=O)[C@]6(C)[C@H]4CC[C@]23C)OC1=O for me?
250

What measured IC50 goes with CC(=O)OCC1=C(C)C[C@H]([C@@H](C)[C@H]2CC[C@H]3[C@@H]4C[C@H]5O[C@]56[C@@H](O)[C@@H](OS(=O)(=O)O)CC(=O)[C@]6(C)[C@H]4CC[C@]23C)OC1=O ?
1120

What IC50 value was documented for this molecule, CC1=C(CO)C(=O)O[C@@H]([C@@H](C)[C@H]2C[C@@H](O)[C@H]3[C@@H]4C[C@H]5O[C@]56[C@@H](O)C=CC(=O)[C@]6(C)[C@H]4CC[C@@]32C)C1 ?
3830
